B1: Triacylglycerol hydrolase DDHD2, residues 389 to 447; numbered along this chain, O94830 (parent)
chain: TLEEDLKKLQLSEFFDIFEKEKVDKEALALCTDRDLQEIGIPLGPRKKILNYFSTRKNS

# Variants of: B1
# assaySummary: abundance fitness (aPCA) (normalised: wild type 0, dead -1); higher = more abundant; growth selection in yeast, the domain comes from the species named
# assayContext: Homo sapiens
resultType: abundance fitness

sequencevariant=F18E resulttype="abundance fitness" observed=-0.508
sequencevariant=K25W resulttype="abundance fitness" observed=-0.329
sequencevariant=L2F resulttype="abundance fitness" observed=-0.269
sequencevariant=L36T resulttype="abundance fitness" observed=-0.298
sequencevariant=F15I resulttype="abundance fitness" observed=-0.513
sequencevariant=L36G resulttype="abundance fitness" observed=-0.322
sequencevariant=D5V resulttype="abundance fitness" observed=-0.343
sequencevariant=K25Q resulttype="abundance fitness" observed=-0.285
sequencevariant=L30F resulttype="abundance fitness" observed=-0.031
sequencevariant=R56S resulttype="abundance fitness" observed=-0.027
sequencevariant=K47C resulttype="abundance fitness" observed=0.136
sequencevariant=K22M resulttype="abundance fitness" observed=-0.103
sequencevariant=D24I resulttype="abundance fitness" observed=-1.2
sequencevariant=R46S resulttype="abundance fitness" observed=-0.058
sequencevariant=Q10C resulttype="abundance fitness" observed=-0.101
sequencevariant=K20D resulttype="abundance fitness" observed=-0.126
sequencevariant=D5H resulttype="abundance fitness" observed=0.004
sequencevariant=K25G resulttype="abundance fitness" observed=0.083
sequencevariant=Q10P resulttype="abundance fitness" observed=-0.863
sequencevariant=L6T resulttype="abundance fitness" observed=-0.492
sequencevariant=F18G resulttype="abundance fitness" observed=-0.644
sequencevariant=Y52T resulttype="abundance fitness" observed=-0.172
sequencevariant=I39K resulttype="abundance fitness" observed=0.196
sequencevariant=S12I resulttype="abundance fitness" observed=-0.012
sequencevariant=E19R resulttype="abundance fitness" observed=-0.007
sequencevariant=N58E resulttype="abundance fitness" observed=0.078
sequencevariant=I49N resulttype="abundance fitness" observed=-0.589
sequencevariant=R56T resulttype="abundance fitness" observed=0.033
sequencevariant=K25T resulttype="abundance fitness" observed=-0.302
sequencevariant=Q37L resulttype="abundance fitness" observed=-0.343
sequencevariant=K25R resulttype="abundance fitness" observed=-0.053
sequencevariant=K48F resulttype="abundance fitness" observed=-0.457
sequencevariant=L2C resulttype="abundance fitness" observed=-0.621
sequencevariant=D16W resulttype="abundance fitness" observed=-0.036
sequencevariant=I39D resulttype="abundance fitness" observed=-0.3
sequencevariant=F15L resulttype="abundance fitness" observed=0.02
sequencevariant=D35W resulttype="abundance fitness" observed=-0.429
sequencevariant=Q37G resulttype="abundance fitness" observed=0.049
sequencevariant=S12W resulttype="abundance fitness" observed=-0.137
sequencevariant=F53S resulttype="abundance fitness" observed=-0.237
sequencevariant=K47P resulttype="abundance fitness" observed=-0.627
sequencevariant=L11M resulttype="abundance fitness" observed=-0.125
sequencevariant=K25A resulttype="abundance fitness" observed=-0.05
sequencevariant=G44F resulttype="abundance fitness" observed=-0.151
sequencevariant=A29E resulttype="abundance fitness" observed=0.005
sequencevariant=A29H resulttype="abundance fitness" observed=0.06
sequencevariant=S54W resulttype="abundance fitness" observed=-0.471
sequencevariant=T32F resulttype="abundance fitness" observed=-1.18
sequencevariant=A29V resulttype="abundance fitness" observed=-0.401
sequencevariant=R56W resulttype="abundance fitness" observed=-0.1
sequencevariant=S54M resulttype="abundance fitness" observed=0.17
sequencevariant=K22Q resulttype="abundance fitness" observed=-0.247
sequencevariant=C31E resulttype="abundance fitness" observed=-0.366
sequencevariant=R34V resulttype="abundance fitness" observed=0.072
